Data origin: paper PMC5837957

tested on: Calu-6 lung cancer cell line; assay: cells; details: Homo sapiens, Calu-6, 72 h, read-out: IC50 (Calu-6), Table 6; 72-hour treatment
readout_type: pIC50
Answers are plain numbers, as −log10 of the molar value.

Exercise: What does the record list as pIC50 for N=C(NCCCNCCCCCCCNCCCNC(=N)NC(=N)NCCC(c1ccccc1)c1ccccc1)NC(=N)NCCC(c1ccccc1)c1ccccc1 ?
Solution: 5.80

###

system: Calu-6 lung cancer cell line; assay: cells; conditions: Homo sapiens, Calu-6, 72 h, read-out: IC50 (Calu-6), Table 2; 72-hour treatment
readout_type: IC50 (µM)
Give bare numbers, in µM.

Exercise: What does the record list as IC50 for N=C(NCCCNCCCCCCCNCCCNC(=N)NC(=N)NCCC(c1ccccc1)c1ccccc1)NC(=N)NCCC(c1ccccc1)c1ccccc1 [Compound 3, verlindamycin] ?
Solution: 6.3
